target: UniProt Q8VGY6; conditions: stereoisomer not certain
Sequence (Q8VGY6 as listed by the source): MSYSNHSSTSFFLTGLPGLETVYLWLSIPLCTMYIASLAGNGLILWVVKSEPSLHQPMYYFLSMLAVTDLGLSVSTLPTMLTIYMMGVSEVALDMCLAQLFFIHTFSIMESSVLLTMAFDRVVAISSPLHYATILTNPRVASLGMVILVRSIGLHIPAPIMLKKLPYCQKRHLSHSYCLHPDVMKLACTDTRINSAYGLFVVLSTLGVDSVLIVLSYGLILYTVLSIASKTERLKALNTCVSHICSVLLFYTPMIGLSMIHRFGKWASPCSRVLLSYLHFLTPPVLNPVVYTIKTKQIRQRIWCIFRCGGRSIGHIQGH
Tick one outcome: active, inactive

CCC(C(=O)O)c1ccccc1 (configuration not stated) | inactive
CCCC(=O)C(C)=O | inactive
CCCCCO | inactive
CCCCCCCC(=O)[O-].[H+] | inactive
COc1cc(C(=O)O)ccc1O | active
CCOC(=O)C(C)C | inactive
CCCCCCC(C)=O | inactive
CCCCCCCCCS | inactive

# lookup: test call for CC(=O)Oc1ccccc1
inactive

Same for CCCCOC(=O)C(C)OC(=O)CCC (configuration not stated)
inactive

Now consider CCCCC(=O)O and answer again.
inactive

What would you report for O=C1CCOc2ccccc21 ?
inactive
